System: Pseudomonas aeruginosa
Experiment: Antimicrobial activity against Pseudomonas aeruginosa 65.18-2 tracheal isolates from mechanically ventilated tuberculosis patient
Type: functional, organism-based
Details: Trachea
The source made the active and inactive calls. The calls are words filed in the database; no cut-off is given here.
endpoint: Activity

{"molecular string": "NC[C@H]1O[C@H](O[C@H]2[C@H](O)[C@@H](O[C@H]3O[C@H](CO)[C@@H](O)[C@H](N)[C@H]3O)[C@H](N)C[C@@H]2N)[C@H](N)C[C@@H]1O", "recorded value": "Active"}
{"molecular string": "CCN1CCN(C(=O)N[C@@H](C(=O)N[C@@H]2C(=O)N3[C@@H]2SC(C)(C)[C@@H]3C(=O)O)c2ccccc2)C(=O)C1=O", "recorded value": "Active"}
{"molecular string": "O=C(O)c1cn(C2CC2)c2cc(N3CCNCC3)c(F)cc2c1=O", "recorded value": "Active"}
{"molecular string": "C[C@H]1[C@H](NC(=O)/C(=N\\OC(C)(C)C(=O)O)c2csc(N)n2)C(=O)N1S(=O)(=O)O", "recorded value": "Active"}
{"molecular string": "CC(C)(O/N=C(\\C(=O)N[C@@H]1C(=O)N2C(C(=O)[O-])=C(C[n+]3ccccc3)CS[C@H]12)c1csc(N)n1)C(=O)O", "recorded value": "Active"}
{"molecular string": "C[C@@H](O)[C@H]1C(=O)N2C(C(=O)O)=C(SCCNC=N)C[C@H]12", "recorded value": "Active"}
{"molecular string": "CCN[C@@H]1C[C@H](N)[C@@H](O[C@H]2OC(CN)=CC[C@H]2N)[C@H](O)[C@H]1O[C@H]1OC[C@](C)(O)[C@H](NC)[C@H]1O", "recorded value": "Active"}
{"molecular string": "CO/N=C(\\C(=O)N[C@@H]1C(=O)N2C(C(=O)[O-])=C(C[N+]3(C)CCCC3)CS[C@H]12)c1csc(N)n1", "recorded value": "Active"}
{"molecular string": "CCn1cc(C(=O)O)c(=O)c2cc(F)c(N3CCNCC3)cc21", "recorded value": "Active"}

###

Tested on: Pseudomonas aeruginosa
Assay: Antimicrobial activity against Pseudomonas aeruginosa 9B5 tracheal isolates from mechanically ventilated chronic respiratory insufficiency patient
Format: functional, organism-based
Settings: Trachea
Active and inactive are the calls of the source. The calls are words filed in the database; no cut-off is given here.

{"molecular string": "CCn1cc(C(=O)O)c(=O)c2cc(F)c(N3CCNCC3)cc21", "Activity": "Active"}
{"molecular string": "O=C(O)c1cn(C2CC2)c2cc(N3CCNCC3)c(F)cc2c1=O", "Activity": "Active"}
{"molecular string": "C[C@@H](O)[C@H]1C(=O)N2C(C(=O)O)=C(SCCNC=N)C[C@H]12", "Activity": "Active"}
{"molecular string": "NCC[C@H](O)C(=O)N[C@@H]1C[C@H](N)[C@@H](O[C@H]2O[C@H](CN)[C@@H](O)[C@H](O)[C@H]2O)[C@H](O)[C@H]1O[C@H]1O[C@H](CO)[C@@H](O)[C@H](N)[C@H]1O", "Activity": "Active"}
{"molecular string": "CC(C)(O/N=C(\\C(=O)N[C@@H]1C(=O)N2C(C(=O)[O-])=C(C[n+]3ccccc3)CS[C@H]12)c1csc(N)n1)C(=O)O", "Activity": "Active"}
{"molecular string": "CO/N=C(\\C(=O)N[C@@H]1C(=O)N2C(C(=O)[O-])=C(C[N+]3(C)CCCC3)CS[C@H]12)c1csc(N)n1", "Activity": "Active"}
